These measurements were taken from the supplement of paper PMC6555819.

Test system: THRa:RXRa (NR concentration 90 nM, RXRa partner concentration 90 nM)
Experiment: PBM binding z-score (relative to random genomic background probes); higher = stronger binding; sequences stand for … in GC…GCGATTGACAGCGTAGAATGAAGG
Exercise: for every item that follows, state its recorded PBM binding z-score.
// return just the number, without any unit appended

# query: PBM binding z-score of entry `CCTACTGGGGCATAAGGTTACCATAAGCCAGCCC`
2.05

Quick one: PBM binding z-score of `GGAACGAGGGCAAGTTGATAGCTGAGTTTGATGG` ?
1.09

Fill in: PBM binding z-score of `AGTCAAAGTTCAGGACGAGCTAACGTAAAGCACG` is ___
1.95

Give the measured PBM binding z-score of `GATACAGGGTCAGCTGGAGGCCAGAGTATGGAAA` .
3.16

Bench note: what PBM binding z-score did `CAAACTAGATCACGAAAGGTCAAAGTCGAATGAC` show?
3.96

Quick one: PBM binding z-score of `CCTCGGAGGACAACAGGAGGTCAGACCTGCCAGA` ?
2.83

Given the entry `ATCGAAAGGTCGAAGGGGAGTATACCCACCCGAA` , report its measured PBM binding z-score.
1.73

Report PBM binding z-score for `ATATGTAGGCTAGCTGGGGTCATTCAGACTAGGC` please.
4.2

State the recorded PBM binding z-score for this entry: `TCATATAGGTAAACAGGTGAAAATCCGTAAGTTA`
0.866

Item under review: `TAGCCTAGGTCAGATCGGGCCAGTACACGCTATA` . Reported PBM binding z-score?
4.29

For the sequence shown here, `CGTCAAAGTTCAAGGTAACCTAACAGAAAGCAGC` , give the reported PBM binding z-score.
3.19

Please report the recorded PBM binding z-score for `ACTATTAGTTGAGACGAGGGCAACCCATAGGTTG` .
2.42

Which PBM binding z-score value is on record for `CGACAAAGTTCAAGGTAACGTAACAGAAAGCAGC` ?
2.8

Could you share which PBM binding z-score value was measured for `AGTCATAGTTCAGGACGAGGTAACGTAAAGCACG` ?
3.35

GET /values?readout=PBM binding z-score&item= `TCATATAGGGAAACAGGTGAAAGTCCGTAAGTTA`
0.537

Find the recorded PBM binding z-score belonging to `TCTTGTAGATCAATAGAGGTCAAGAAAGTGCGCT` and report it.
4.17

// returns reported PBM binding z-score for input `TCTCAAAGTTCAAAGGTAACGTAAGTATCCACAC`
3.46

What value of measured PBM binding z-score is listed for `GCTAGTTAGTCAGTAAAAGGTCACACACCGGTCG` ?
3.49

Quick one: PBM binding z-score for `CAAACTAGGTCACGAAAAGTCAAAGTCGAATGAC` ?
3.35

So what does the record say about PBM binding z-score for `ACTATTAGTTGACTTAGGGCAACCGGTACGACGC` ?
1.47

Looking for the measured PBM binding z-score of `TCTGCTAGGTCAACGATGGTCAGCAAATCTGCTA` , can you help?
3.17

Requested field: PBM binding z-score. Item: `GCTAGTTGGTCGGTAAAAGGTCACACACCGGTCG`
3.47

Form field: reported PBM binding z-score of `ACAGACAGGTGAGTGAAGGTAGCTCAGCTGGACG`
0.263

Data request, read-out PBM binding z-score, for `TCGAGTAGGTAAGGGGCATTCAGAATGGCGTCGA`
-0.336

What does the record list as PBM binding z-score for `ATCTCTAGATAAGACTCAGTTCAGTGAAGAACGC` ?
0.116

What does the data say about its PBM binding z-score? Entry: `TCTTGTAGATCAACAGAAGGTTAAGAAAGATCGA`
0.733

Value lookup for PBM binding z-score; key = `AATAAAGGGTCACTAGGCCAGAGTAGGTACGAAT`
2.82

// lookup PBM binding z-score for `AGACAAAGTTCACTAGGTAACGTAAGATTCAGCT`
2.09

PBM binding z-score for `ATATGTAGGTTAAGGGTCATTCCGGTTGGTTCGC` ?
3.49

Entry under review: `ACTATTAGGTGAGACGAGGGCAACCGATAGGTTG` . Reported PBM binding z-score?
3.84

Which value of PBM binding z-score has been reported for `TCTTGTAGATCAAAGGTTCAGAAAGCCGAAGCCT` in the records?
0.166

Quick one: PBM binding z-score of `AGAACGAGGGCACGCTGGGTTGATAGCAGAGTAG` ?
2.5

Can you share its PBM binding z-score? I mean this sequence: `ATACCACGGTGATCGTGAGGTCGTTGATACTAAC`
2.65

Suppose we examine the sequence `ATACCAAGGTGATCGTAAGGTCGTTGATACTAAC` ; what PBM binding z-score value has been reported?
3.44

I'd like to know its PBM binding z-score. The sequence in question is `ATATCTAGGTTAAGGGTCATTCAGGTTGGTTCGC`
3.82

Record request: PBM binding z-score value, item `ACTAGCAGGCCAATGGTCACTCAAGATTAGTCCG`
-0.312

Endpoint output: PBM binding z-score of `GTTAGCAGGCCATTTGGGTCACTCAATGACGGGC` . Value?
1.79
